Data provenance: patent US9695152B2

Target: human CYP11B1 (Homo sapiens (Human))
Sequence (P15538 25-503): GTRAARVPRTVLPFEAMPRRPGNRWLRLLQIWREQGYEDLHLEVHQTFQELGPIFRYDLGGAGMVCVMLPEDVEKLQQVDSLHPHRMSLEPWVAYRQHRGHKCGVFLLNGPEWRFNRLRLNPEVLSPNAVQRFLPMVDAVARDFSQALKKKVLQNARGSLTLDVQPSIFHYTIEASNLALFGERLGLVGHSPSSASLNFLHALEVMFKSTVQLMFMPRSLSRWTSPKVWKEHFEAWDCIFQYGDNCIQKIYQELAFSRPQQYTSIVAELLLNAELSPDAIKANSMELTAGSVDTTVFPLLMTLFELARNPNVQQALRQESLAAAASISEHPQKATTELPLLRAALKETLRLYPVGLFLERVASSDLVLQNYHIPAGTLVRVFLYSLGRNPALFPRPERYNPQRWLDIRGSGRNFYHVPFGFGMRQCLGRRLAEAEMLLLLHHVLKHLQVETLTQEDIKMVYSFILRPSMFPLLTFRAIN
Assay: G-402 cellular enzyme assay, human CYP11B1 (cortisol release, HTRF)
Settings: G-402 cells expressing human CYP11B1, 1 μM Deoxycortisol
READOUT TYPE: log10 EC50 (log10 of the value in nM)
In plain terms, each number is the log10 of measured EC50 in nM.

Item Cn1cc(C(=O)N2CC(Nc3cncc(N4C(=O)c5ccc(C#N)cc5C4(C)C)c3)C2)cn1 [Example 33] with human CYP11B1 (Homo sapiens (Human)) - log10 EC50?
4.47

Check Cn1ccnc1C(=O)N1CC(Nc2cncc(N3C(=O)c4ccc(C#N)cc4C3(C)C)c2)C1 [Example 34] too.
2.77

Check CC1(C)c2cc(Cl)ccc2C(=O)N1c1cncc(NC2CCCN(S(=O)(=O)C3CC3)C2)c1 (single isomer, unassigned; (-)) [Example 8] too.
4.29

Check Cc1ccncc1C(=O)N1CC(Nc2cncc(N3C(=O)c4ccc(Cl)cc4C3(C)C)c2)C1 [Example 10] too.
3.24

Check C[C@@H]1c2cc(Cl)ccc2C(=O)N1c1cncc(NC2CN(C(=O)c3ncccc3Cl)C2)c1 (single isomer, unassigned) [Example 27] too.
3.05
